ASSAY_METHOD_TEXT: yeast display, Sf9 membrane polyspecificity reagent, FACS + sequencing; frameworks hold sequencing errors
RECORDED_METRIC: polyreactivity (PSR sort gate)

QVHLVESGGGLVKAGGSLRISCAASGRTSVLYAMGWYRQAPGKDREFVAAITWNSGSTYYADSVKGRFTISRDNAKHTVYLQMNCLKPEDTAVYYCAADVYYEYDYWGQGTQVTVSS    low polyreactivity
QVQLVESGGGLVQAGGSLRLSCAASGRTFYYYAMGWYRPAPGKERELVAAISWSGGRTYYADSVKGRFTISRDNAKNTVYLQMNSLKPEDTAVYYCNAEPPRGYTVSSGGEMDYWGQGTQVTVSS    low polyreactivity
QVQLVESGGGLVQAGGSLRLSCAASGGTLFTNAMGWYRQAPGKERELVAAISWRGGRTYYADSVKGRFTISRDNAKNTVYLQMNSLKAEDTAVYYCAAASAAGYDYWGQGTQVTVSS    low polyreactivity

Measured values drawn from the nanobody polyreactivity screen of Harvey et al. (2022) for this set.
